- studySystem: PDGF-AB (A-chain/B-chain heterodimer) (Homo sapiens, UniProt P04085;P01127 P04085:87-211,P01127:82-190)
- Sequence (P01127 82-190, chain 2 of 2, other chains not shown): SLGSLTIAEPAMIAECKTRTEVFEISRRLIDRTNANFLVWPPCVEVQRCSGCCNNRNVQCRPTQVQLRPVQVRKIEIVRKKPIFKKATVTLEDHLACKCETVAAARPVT
- assayDetails: filter
- testContext: tags: R&D Systems, expressed in E. coli, carrier-free
Class definitions on binding signal: low-valued = under 0.8 Kd ligand/Kd 36t, mid-valued = from 0.8 Kd ligand/Kd 36t up to 3 Kd ligand/Kd 36t, high-valued = 3 Kd ligand/Kd 36t and over

- CACAGGCUACGGCACGTAGAGCAUCACCATGATCCUGUG (ssDNA, 2'-F U8,U24,C25,C34,C35; 2'-OMe C10,G11,G12,C13,A14,A26,C27,C28,A29,U36,G37,U38,G39; 3'-3' inverted T at nt 40) [1266]: mid-valued
- CACAGGCTACGGCACGTAGAGCATCACCATGATCCTGTGT (ssDNA, 2'-OMe C25,A26,C27,C28,A29; 3'-3' inverted T at nt 40) [1145]: low-valued
- CACAGGCTACGGCACGTAGAGCATCACCATGATCCTGTGT (ssDNA, 2'-F C34; 3'-3' inverted T at nt 40) [1162]: low-valued
- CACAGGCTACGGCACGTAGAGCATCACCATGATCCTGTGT (ssDNA, 2'-F C25; 3'-3' inverted T at nt 40) [1161]: low-valued
- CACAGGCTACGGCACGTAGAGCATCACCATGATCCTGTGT (ssDNA, 2'-F C35; 3'-3' inverted T at nt 40) [1165]: low-valued
- CACAGGCTACGGCACGUAGAGCATCACCATGATCCTGTG (ssDNA, 2'-OMe C10,G11,G12,C13,A14,C15,G16,U17; 3'-3' inverted T at nt 40) [1074]: high-valued
- CAGGCUACGGCACGTAGAGCAUCACCATGATCCUG (ssDNA, 2'-F U6,U22,C23,C32,C33; 2'-OMe C8,G9,G10,C11,A12,A24,C25,C26,A27,U34,G35; 3'-3' inverted T at nt 36) [1295]: mid-valued
- CACAGGCTACGGCACGTAGAGCATCACCATGATCCTGTG (ssDNA, 2'-F U17; 3'-3' inverted T at nt 40) [1166]: low-valued
- CAGGCUCGGCACGAGAGCAUCCCAGATCCUG (ssDNA, 2'-F U6,U20,C21,C28,C29; 2'-OMe C7,G8,G9,C10,A11,C22,C23,A24,U30,G31; 3'-3' inverted T at nt 32) [1297]: mid-valued
- CACAGGCTACGGCACGTAGAGCATCACCATGATCCUGUG (ssDNA, 2'-OMe C10,G11,G12,C13,A14,C25,A26,C27,C28,A29,U36,G37,U38,G39; 2'-F C34,C35; 3'-3' inverted T at nt 40) [1267]: high-valued
- CACAGGCTACGGCACGUAGAGCATCACCAUGATCCTGTG (ssDNA, 2'-OMe C1,A2,C3,C10,G11,G12,C13,A14,C15,G16,U17,A26,C27,C28,A29,U30; 3'-3' inverted T at nt 40) [1076]: high-valued
- CACAGGCUACGGCACGTAGAGCATCACCATGATCCUGUG (ssDNA, 2'-F U8,C34; 2'-OMe C10,G11,G12,C13,A14,C25,A26,C27,C28,A29,U36,G37,U38,G39; 3'-3' inverted T at nt 40) [1269]: mid-valued
- CACAGGCTACGGCACGTAGAGCATCACCAUGATCCTGTG (ssDNA, 2'-OMe A26,C27,C28,A29,U30; 3'-3' inverted T at nt 40) [1075]: high-valued
- CACAGGCTACGGCACGTAGAGCATCACCATGATCCUGUG (ssDNA, 2'-OMe U36,G37,U38,G39; 3'-3' inverted T at nt 40) [EV5]: mid-valued
- CAGGCUACGGCACGTAGAGCAUCACCATGATCCUG (ssDNA, 2'-F U6,U22,C23,C32,C33; 2'-OMe C8,G9,G10,C11,A12,G17,G19,C20,A24,C25,C26,A27,U34,G35; 3'-3' inverted T at nt 36) [1329]: low-valued
- CACAGGCTACGGCACGTAGAGCATCACCATGATCCTGTG (ssDNA, 2'-F U8; 3'-3' inverted T at nt 40) [1164]: low-valued
- CACAGGCTACGGCACGTAGAGCATCACCATGAUCCUGTG (ssDNA, 2'-OMe G31,A32,U33,C34,C35,U36; 3'-3' inverted T at nt 40) [1144]: high-valued
- CACAGGCTACGGCACGTAGAGCATCACCATGATCCTGTG (ssDNA, 2'-F U30; 3'-3' inverted T at nt 40) [1163]: mid-valued
- CAGGCUACGGCACGTAGAGCAUCACCATGATCCUG (ssDNA, 2'-F U6,U22,C23,C32,C33; 2'-OMe C8,G9,G10,C11,A12,G17,G19,A24,C25,C26,A27,U34,G35; 3'-3' inverted T at nt 36) [1369]: low-valued
- CACAGGCTACGGCACGTAGAGCATCACCATGATCCTGTG (ssDNA, 2'-F U24; 3'-3' inverted T at nt 40) [1159]: low-valued
- CACAGGCTACGGCACGTAGAGCATCACCATGATCCUGUG (ssDNA, 2'-OMe C10,G11,G12,C13,A14,C25,A26,C27,C28,A29,U36,G37,U38,G39; 2'-F C34; 3'-3' inverted T at nt 40) [1265]: mid-valued
- CACAGGCUACGGCACGTAGAGCATCACCATGATCCTGTG (ssDNA, 2'-OMe A4,G5,G6,C7,U8,A9; 3'-3' inverted T at nt 40) [1148]: high-valued
- CAGGCUACGGCACGTAGAGCAUCACCATGATCCUG (ssDNA, 2'-OMe C5,U6,C8,G9,G10,C11,A12,A18,U22,C23,A24,C25,C26,A27,C32,C33,U34,G35; 3'-3' inverted T at nt 36) [1305]: high-valued
- CACAGGCTACGGCACGTAGAGCATCACCATGATCCTGTG (ssDNA, 2'-F U33; 3'-3' inverted T at nt 40) [1158]: mid-valued
- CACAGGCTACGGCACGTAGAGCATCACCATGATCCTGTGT (ssDNA, 2'-OMe A20,G21,C22; 3'-3' inverted T at nt 40) [EV1]: high-valued
- CACAGGCTACGGCACGTAGAGCATCACCATGATCCTGUG (ssDNA, 2'-OMe C10,G11,G12,C13,A14,A26,C27,C28,A29,G37,U38,G39; 2'-F C34; 3'-3' inverted T at nt 40) [1257]: mid-valued
- CAGGCUCGGCACGAGAGCAUCACCATGATCCUG (ssDNA, 2'-F U6,U20,C21,C30,C31; 2'-OMe C7,G8,G9,C10,A11,A22,C23,C24,A25,U32,G33; 3'-3' inverted T at nt 34) [1296]: mid-valued
